Target under test: Ubiquitin carboxyl-terminal hydrolase 17-like protein 5 (Homo sapiens)
Assay procedure: ubiquitin-specific protease 17 DUB inhibitors, concentration-effect assay, cell-free, verification of initial screening actives (AID 1645864)
Test conditions: purified USP17, ubiquitin-rhodamine cleavage fluorescence, 3 h
Calls of active or inactive are those of the source.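 Rule for the calls: active = maximal inhibition of USP17 at or above 30% in the confirmation dose-response, a value not among the printed readouts; inactive = the rest.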
I would appreciate it if you answered using one of these outcomes: active, inactive

These recorded examples may help you get a feel for the data.
> print(dat)
                                   compound  class.label
1  O=C(Cc1noc2ccccc12)N1CCN(c2ccc([N+](=O)[O-])cc2)CC1     inactive
2  O=C1COc2ccc(NC(=O)c3cnn(Cc4ccccc4)c3)cc2N1       active

### Prompt Identify the outcome logged in this assay for the compound shown: CC(=O)N1CCCC(c2nc(C)cc(-c3cc(F)ccc3C(=O)O)n2)C1 (stereo not given)
### Response inactive

### Prompt Identify the outcome logged in this assay for the compound shown: Cc1ccc(C(=O)c2cn(CC(=O)Nc3ccccc3)c3ccc(C)cc3c2=O)cc1
### Response active

### Prompt Identify the outcome logged in this assay for the compound shown: COc1ccc(S(=O)(=O)N2CCc3ccccc32)cc1C(=O)Nc1ccc2[nH]c(=O)[nH]c2c1
### Response active

Where do these numbers come from? They come from PubChem BioAssay AID1645864.
